- target_system: UniProtKB P02550
- Sequence (P02550 whole entry, looked up): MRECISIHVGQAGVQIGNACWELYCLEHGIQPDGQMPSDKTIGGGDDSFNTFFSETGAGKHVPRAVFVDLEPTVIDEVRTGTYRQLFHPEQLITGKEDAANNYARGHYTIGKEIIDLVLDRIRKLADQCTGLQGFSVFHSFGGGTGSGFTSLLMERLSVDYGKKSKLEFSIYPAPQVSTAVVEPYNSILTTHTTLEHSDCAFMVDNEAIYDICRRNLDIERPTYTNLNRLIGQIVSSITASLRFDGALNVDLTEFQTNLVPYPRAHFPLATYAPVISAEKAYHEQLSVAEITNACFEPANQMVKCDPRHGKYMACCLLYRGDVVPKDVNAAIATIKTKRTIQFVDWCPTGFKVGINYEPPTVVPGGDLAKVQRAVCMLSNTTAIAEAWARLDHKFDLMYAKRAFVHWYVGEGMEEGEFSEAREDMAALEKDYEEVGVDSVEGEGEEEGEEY
- assay_info: Evaluated for the inhibitory concentration against porcine brain tubulin polymerization

line_notation	relational_operator	IC50 (µM)
COc1ccc(C(=O)N(C)c2cc(OC)c(OC)c(OC)c2)cc1O	>	100
CCCCCN(Cc1cc(OC)c(OC)c(OC)c1)c1ccc(OC)c(O)c1	=	20
COc1ccc(N(C)C(=O)c2cc(OC)c(OC)c(OC)c2)cc1O	>	100
COc1ccc(CNc2cc(OC)c(OC)c(OC)c2)cc1O	=	100
COc1ccc(N(C)Cc2cc(OC)c(OC)c(OC)c2)cc1O	=	45
COc1ccc(CN(C)c2cc(OC)c(OC)c(OC)c2)cc1O	=	100
